Would you kindly list melting point for each of these molecules?

Sample answers from the record:
COc1ccc2c(c1)N(C(=O)OC(C)(C)C)C(=O)C(C(=O)OC(C)(C)C)CC2 (racemic) :: 91 to 92 °C
CCN1C(=O)C(Br)(C(=O)OC)CCc2cc(Br)c(OC)cc21 (racemic) :: 71 to 73 °C (dec.)
COc1ccc2c(c1)NC(=O)C(C(=O)OC(C)(C)C)CC2 (racemic) :: 145 to 147 °C
COc1cc2c(cc1Br)CCC(C(=O)OC(C)(C)C)C(=O)N2Cc1cccc(F)c1 (racemic) :: 146 to 148 °C
CCN1C(=O)C(C(=O)O)CCc2cc(Br)c(OC)cc21 (racemic) :: 188 to 189 °C (dec.)

Give reported melting point value for CCN1C(=O)C(C(=O)O)CCc2cc(N3CCNCC3)c(OC)cc21.Cl (racemic) 173 to 176 °C (dec.)
